System: SF-268 CNS
PROCEDURE DETAILS: NCI-60 one-dose screen, 48 h (100 = growth as untreated, 0 = no growth, -100 = all killed)
ASSAY CONDITIONS: 10 µM unless noted
Compounds without any hit were thinned out: in the full panel of roughly 83,000, 20% have a hit.
REPORTED ENDPOINT: growth (%)
Unit % implied. Number only.

The compound identified as `O=C1C(=O)c2cc([N+](=O)[O-])ccc2-c2ccccc21` registered its growth at -84.4

get_value(item= `Cc1ccc(N2C(=O)C=CC2=O)cc1` , readout=growth) returns 106

Item: `CCOc1ccc(Nc2nc3c(s2)C(=O)c2ccccc2C3=O)cc1` | growth: 73

The recorded growth for `CN=C(N)N/N=C(\c1ccccc1)c1ccc(Br)cc1` is 11.9
